Some molecules, each annotated with its measured Activity.
# System: HeLa
# Protocol notes: Antiproliferative activity against human HeLa cells at 3 ug/ml after 72 hrs by MTT assay
# Type: cell-based

Compound	Activity, %
O=C1CSc2ccccc2N1Cc1cn(Cc2ccccc2)nn1	0
O=C1CSc2ccccc2N1Cc1cn(Cc2ccc(F)cc2)nn1	45.1
O=C1CSc2ccccc2N1Cc1cn(Cc2cccc(Cl)c2)nn1	52.3
O=C1CSc2ccccc2N1Cc1cn(Cc2ccc(Cl)cc2)nn1	41.9
O=C1CSc2ccccc2N1Cc1cn(-c2ccc([N+](=O)[O-])cc2)nn1	13.3
O=C1CSc2ccccc2N1Cc1cn(-c2cccc([N+](=O)[O-])c2)nn1	11.9

###

# Protocol notes: Cytotoxicity against human A549 cells assessed as growth inhibition after 48 hrs by MTT assay
# Assay type: cell-based
# Setup conditions: A549 cells
Some compounds, each annotated with its measured GI50 at 48 h.

Compound	GI50 at 48 h
O=C1CSc2ccccc2N1Cc1cn(Cc2cccc([N+](=O)[O-])c2)nn1	> 30 µg/mL
O=C1CSc2ccccc2N1Cc1cn(Cc2ccc(Cl)cc2)nn1	29.9 µg/mL
O=C1CSc2ccccc2N1Cc1cn(Cc2cccc(Cl)c2)nn1	> 30 µg/mL
O=C1CSc2ccccc2N1Cc1cn(Cc2ccc(Br)cc2)nn1	> 30 µg/mL
CC(=O)O[C@H]1C(=O)[C@@]2(C)[C@H]([C@H](OC(=O)c3ccccc3)[C@]3(O)C[C@H](OC(=O)[C@H](O)[C@@H](NC(=O)c4ccccc4)c4ccccc4)C(C)=C1C3(C)C)[C@]1(OC(C)=O)CO[C@@H]1C[C@@H]2O [PACLITAXEL]	< 0.0023 µg/mL
O=C1CSc2ccccc2N1Cc1cn(Cc2ccccc2)nn1	> 30 µg/mL
O=C1CSc2ccccc2N1Cc1cn(Cc2ccc(F)cc2)nn1	> 30 µg/mL
O=C1CSc2ccccc2N1Cc1cn(-c2ccc([N+](=O)[O-])cc2)nn1	> 30 µg/mL
O=C1CSc2ccccc2N1Cc1cn(Cc2ccccc2Cl)nn1	> 30 µg/mL
O=C1CSc2ccccc2N1Cc1cn(Cc2ccc([N+](=O)[O-])cc2)nn1	> 30 µg/mL
O=C1CSc2ccccc2N1Cc1cn(-c2cccc([N+](=O)[O-])c2)nn1	> 30 µg/mL

###

# Protocol notes: Cytotoxicity against human HeLa cells assessed as growth inhibition after 72 hrs by MTT assay
# Format: cell-based
# Setup conditions: HeLa cells
Some molecules, each annotated with its measured GI50 at 72 h.

Molecule	GI50 at 72 h
O=C1CSc2ccccc2N1Cc1cn(Cc2ccccc2)nn1	> 30 µg/mL
O=C1CSc2ccccc2N1Cc1cn(Cc2cccc(Cl)c2)nn1	> 30 µg/mL
O=C1CSc2ccccc2N1Cc1cn(Cc2cccc([N+](=O)[O-])c2)nn1	> 30 µg/mL
O=C1CSc2ccccc2N1Cc1cn(Cc2ccc(Cl)cc2)nn1	> 30 µg/mL
O=C1CSc2ccccc2N1Cc1cn(Cc2ccc(Br)cc2)nn1	> 30 µg/mL
CC(=O)O[C@H]1C(=O)[C@@]2(C)[C@H]([C@H](OC(=O)c3ccccc3)[C@]3(O)C[C@H](OC(=O)[C@H](O)[C@@H](NC(=O)c4ccccc4)c4ccccc4)C(C)=C1C3(C)C)[C@]1(OC(C)=O)CO[C@@H]1C[C@@H]2O [PACLITAXEL]	0.14 µg/mL
O=C1CSc2ccccc2N1Cc1cn(-c2cccc([N+](=O)[O-])c2)nn1	> 30 µg/mL
O=C1CSc2ccccc2N1Cc1cn(Cc2ccccc2Cl)nn1	> 30 µg/mL
O=C1CSc2ccccc2N1Cc1cn(Cc2ccc([N+](=O)[O-])cc2)nn1	> 30 µg/mL
O=C1CSc2ccccc2N1Cc1cn(Cc2ccc(F)cc2)nn1	28.6 µg/mL
O=C1CSc2ccccc2N1Cc1cn(-c2ccc([N+](=O)[O-])cc2)nn1	> 30 µg/mL
